- measured.target: Uracil nucleotide/cysteinyl leukotriene receptor (Homo sapiens, UniProt Q13304)
- Sequence (Q13304 whole entry): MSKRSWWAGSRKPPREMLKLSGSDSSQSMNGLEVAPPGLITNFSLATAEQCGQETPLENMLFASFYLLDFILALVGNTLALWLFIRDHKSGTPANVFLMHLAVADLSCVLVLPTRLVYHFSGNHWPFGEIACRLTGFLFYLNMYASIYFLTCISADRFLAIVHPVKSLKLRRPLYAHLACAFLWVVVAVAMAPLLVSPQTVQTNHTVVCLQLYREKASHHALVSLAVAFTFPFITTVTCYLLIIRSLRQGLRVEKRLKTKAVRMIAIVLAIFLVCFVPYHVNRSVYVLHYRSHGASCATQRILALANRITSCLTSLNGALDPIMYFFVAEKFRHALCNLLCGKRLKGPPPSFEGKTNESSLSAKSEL
- test.summary: Agonist activity at human GPR17 expressed in human 1321N1 cells assessed as induction of [35S]GTPgammaS binding after 30 mins by rapid filtration assay
endpoint.label: EC50 (nM)
Reply with just the number (in nM).

Sample answers from the record:
O=P(O)(O)OP(=O)(O)OP(=O)(O)OC[C@H]1O[C@@H](n2cnc3c(NC4CCCC4)ncnc32)[C@H](O)[C@@H]1O :: 1.4
CNc1nc(Cl)nc2c1ncn2[C@@H]1O[C@H](COP(=O)(O)OP(=O)(O)OP(=O)(O)O)[C@@H](O)[C@H]1O :: 11
Nc1nc(C#Cc2ccccc2)nc2c1ncn2[C@@H]1O[C@H](COP(=O)(O)OP(=O)(O)OP(=O)(O)O)[C@@H](O)[C@H]1O :: 0.036
CNc1nc(Cl)cc2c1ncn2[C@@H]1O[C@H](COP(=O)(O)OP(=O)(O)OP(=O)(O)O)[C@@H](O)[C@H]1O :: 1.7

Per the record, "O=c1[nH]c(=O)n([C@@H]2O[C@H](COP(=O)(O)OP(=O)(O)O)[C@@H](O)[C@H]2O)cc1I" has EC50 of 945
